ASSAY_COMMENT: qHTS assay for MDR1-selective chemotherapeutics: Primary screen using the drug-selected MDR subline cells KB-V1; further: nearly all actives have a fitted effect of over 60% in size
CONDITION_INFO: KB-V1 MDR cells viability, CellTiter-Glo, 72 h; series mostly up to 46.1 µM
From the text: A prime difficulty in effectively treating cancer is the development of cellular resistance to multiple structurally unrelated anticancer drugs, a phenomenon known as multidrug resistance (MDR). […] Numerous strategies to overcome P-gp-mediated MDR have been explored, including the design of drugs that evade recognition and efflux, and development of inhibitors to block efflux and restore drug accumulation. […]
In all, about 400,000 compounds went through this assay and about 13,000 (3.2%) were called active. Another 18% or so got no clear call; they are omitted. The call rests on the fitted dose curve; in most records, active means well fitted cell-killing curve with a large enough effect; inconclusive means small, poorly fitted or top-dose-only effect, or effect the other way; inactive means flat fitted curve, though single readings scatter. The sample as a whole holds a higher share of actives than the screen did.
Your reply should match one of these outcome classes. active, inactive

See these solved cases before continuing.
1. COc1ccccc1CNC(=O)c1ccccc1NC(=O)c1nsc2ccccc12 : inactive
2. Cc1ccc(C(=O)N/C(=C/c2ccc(-c3cccc([N+](=O)[O-])c3)o2)C(=O)NCCCN(C)C)cc1 : inactive

Please state the recorded outcome for this compound: CCOC(=O)C1(CCOc2ccccc2)CCN(Cc2cc(OC)c(O)cc2Cl)CC1 inactive

Please state the recorded outcome for this compound: COc1ccc([C@H]2N[C@]3(CCCN(CC4CCCCC4)C3=O)[C@H]3C(=O)N(C)C(=O)[C@@H]23)cc1 inactive

Please state the recorded outcome for this compound: CCOc1ccc2[nH]c(=S)sc2c1 inactive

Please state the recorded outcome for this compound: c1ccc(C2c3[nH]c4ccccc4c3CCN2Cc2cccn2-c2cccnc2)nc1 (stereo unspecified) inactive

Please state the recorded outcome for this compound: CC1(C(=O)Nc2ccc3c(c2)OCCO3)CN(S(C)(=O)=O)CC(=O)N1Cc1cccc(F)c1 (stereo unspecified) inactive

Please state the recorded outcome for this compound: O=C(Nc1cccc2cccnc12)c1ccc2sc([C@H]3C[C@H](O)[C@@H](CO)O3)nc2c1 inactive

Please state the recorded outcome for this compound: O=C(CNCc1ccc(F)cc1)Nc1ccccc1-c1ccccc1 active

Please state the recorded outcome for this compound: COc1ccc(OC)c(C(=O)NC2CCCc3c2cnn3-c2cc(C)cc(C)c2)c1 (stereo unspecified) inactive

Please state the recorded outcome for this compound: O=C(Nc1ccn(Cc2ccccc2)n1)c1cccc(F)c1 inactive

Please state the recorded outcome for this compound: O=C(c1cn2ccccc2n1)N1CCc2c([nH]c3ccccc23)C1c1ccccn1 (stereo unspecified) inactive

Please state the recorded outcome for this compound: Cc1ccc(Cc2cnc(NC(=O)/C(C#N)=C/c3ccc(-c4cccc([N+](=O)[O-])c4)o3)s2)cc1 active

Please state the recorded outcome for this compound: CCCNC(=O)C1(C)CCCN(Cc2cccc(C(F)(F)F)c2)C1 (stereo unspecified) inactive

Please state the recorded outcome for this compound: Cc1ccc(NC(=O)CC2C(=O)N(Cc3ccccc3)C(=S)N2NC(=O)c2cccc(F)c2)c(C)c1 (stereo unspecified) active

Please state the recorded outcome for this compound: COc1cc(OC)c(/C=C/c2ccnc3ccccc23)c(OC)c1 inactive

Please state the recorded outcome for this compound: CC(OC(=O)c1cccc(S(=O)(=O)N2CCOCC2)c1)C(=O)NCC1CCCCC1 (stereo unspecified) inactive

Please state the recorded outcome for this compound: CCCNC(=O)C1(C)CCN(C(=O)c2ccc(F)cc2Cl)C1 (stereo unspecified) inactive

* * *

ASSAY_COMMENT: qHTS assay for MDR1-selective chemotherapeutics: Primary screen using the drug-selected MDR subline cells KB-V1; further: nearly all actives have a fitted effect of over 60% in size
CONDITION_INFO: KB-V1 MDR cells viability, CellTiter-Glo, 72 h; series mostly up to 46.1 µM
Among all 400,000 compounds or so, about 13,000 (3.2%) were called active. About 18% were inconclusive and are not listed. The call rests on the fitted dose curve; in most records, active means well fitted cell-killing curve with a large enough effect; inconclusive means small, poorly fitted or top-dose-only effect, or effect the other way; inactive means flat fitted curve, though single readings scatter. What follows is part of a selection rich in actives, with near analogues and random picks from the rest.
Your reply should match one of these outcome classes. active, inactive

See these solved cases before continuing.
1) O=C(CN1CCSc2ccccc21)N1CCN(c2ccccc2)CC1 : inactive
2) Cc1ccc(F)cc1NC(=O)CCSc1nc(-c2ccco2)cc(C(F)(F)F)n1 : inactive
3) Cc1ccc(C)c(N2CCN(C(=O)Cn3ncc4c(=O)oc5ccc(C)cc5c43)CC2)c1 : inactive
4) COC(=O)[C@@]1(Sc2ccc(C)cc2)CC(=O)N(c2cccc(SC)c2)[C@@H]1c1ccccc1 : active

Please state the recorded outcome for this compound: CN1OC[C@@H]2CN[C@H](c3ccc(-c4ccccc4)cc3)C[C@@H]21 inactive

* * *

ASSAY_COMMENT: qHTS assay for MDR1-selective chemotherapeutics: Primary screen using the drug-selected MDR subline cells KB-V1; further: nearly all actives have a fitted effect of over 60% in size
CONDITION_INFO: KB-V1 MDR cells viability, CellTiter-Glo, 72 h; series mostly up to 46.1 µM
About 13,000 (3.2%) of roughly 400,000 compounds were called active. Another 18% or so got no clear call; they are omitted. Calls come from the whole dose curve; as a rule, active = well fitted cell-killing curve with a large enough effect; inconclusive = small, poorly fitted or top-dose-only effect, or effect the other way; inactive = flat fitted curve, though single readings scatter. The sample holds actives, similar compounds and a random draw of the others, so the mix is not that of the screen.
Your reply should match one of these outcome classes. T (active), F (inactive)

See these solved cases before continuing.
1. Cc1ccc(C)c(N2CCN(C(=O)CCCCn3c(=O)[nH]c4ccccc4c3=O)CC2)c1 : T
2. COc1ccc(C2c3c(oc4ccccc4c3=O)C(=O)N2Cc2ccc3c(c2)OCO3)cc1 (centres undefined) : F
3. Cc1cccc2cc(CN(Cc3cccs3)C(c3nnnn3C3CCCC3)C(C)C)c(=O)[nH]c12 (centres undefined) : F
4. Cc1cc(C)c2cc(CN(Cc3nnnn3Cc3ccc(F)cc3)C3CCCC3)c(=O)[nH]c2c1 : F
5. Cc1ccc(S(=O)(=O)CCC(=O)OCC(=O)N(C)C2CCS(=O)(=O)C2)cc1 (centres undefined) : F
6. CC1(C(=O)NS(=O)(=O)c2ccccc2)CCN1C(=O)Cc1ccc(-c2ccccc2)cc1 (centres undefined) : F
7. CCC(c1nnnn1Cc1ccccc1)N(Cc1cc2cc(OC)ccc2[nH]c1=O)CC1CCCO1 (centres undefined) : F
8. C[C@@H]1CN([C@@H](C)CO)C(=O)c2cc(NS(C)(=O)=O)ccc2O[C@@H](C)CCCCO[C@H]1CN(C)C(=O)Nc1ccc2c(c1)OCO2 : F
9. Cc1ccc(CC2CC(=O)N(c3cc(C)ccc3C)C2=O)cc1 (centres undefined) : F
10. COc1ccc(CN2C(=O)CC(Cc3ccc(C)cc3)C2=O)cc1OC (centres undefined) : T

Please state the recorded outcome for this compound: Cc1ccc(NC(=O)N2CCC(C(=O)NCc3ccc(F)cc3)CC2)cc1 T

Please state the recorded outcome for this compound: CCOc1ccc2[nH]c(=O)c(CN(Cc3nnnn3Cc3ccccc3)CC3CCCO3)cc2c1 (centres undefined) F

Please state the recorded outcome for this compound: Cc1ccc(S(=O)(=O)N2C[C@H]3C(=O)C[C@@H](c4cccc5ccccc45)N(S(=O)(=O)c4ccc(C)cc4)[C@H]3C[C@H]2c2ccc(Cl)cc2)cc1 F

* * *

ASSAY_COMMENT: qHTS assay for MDR1-selective chemotherapeutics: Primary screen using the drug-selected MDR subline cells KB-V1; further: nearly all actives have a fitted effect of over 60% in size
CONDITION_INFO: KB-V1 MDR cells viability, CellTiter-Glo, 72 h; series mostly up to 46.1 µM
Among all 400,000 compounds or so, about 13,000 (3.2%) were called active. Roughly 18% stayed inconclusive and do not appear here. The call rests on the fitted dose curve; in most records, active means well fitted cell-killing curve with a large enough effect; inconclusive means small, poorly fitted or top-dose-only effect, or effect the other way; inactive means flat fitted curve, though single readings scatter. Many of the other results were omitted from the sample, so actives are more common in it than they were.
Your reply should match one of these outcome classes. active, inactive

See these solved cases before continuing.
1) COc1ccc(C)cc1N(CC(=O)N1CCCC1)S(=O)(=O)c1ccccc1 : inactive
2) CCOC(=O)N1CCN(S(=O)(=O)c2ccc(OC)cc2)CC1 : inactive
3) O=C(NC1CCN(Cc2ccccc2)CC1)c1cc(Br)c(Br)[nH]1 : inactive

Please state the recorded outcome for this compound: CCn1c(SCC(=O)Nc2ccc(C)cc2)nc2nc3c(cc2c1=O)CCCC3 active

Please state the recorded outcome for this compound: NC(=O)c1ccccc1N(Cc1ccccc1)S(=O)(=O)c1ccccc1 inactive

Please state the recorded outcome for this compound: CC(=O)NCCn1c(SCC(=O)Nc2ccc(C)cc2)nc2ccccc2c1=O inactive

* * *

ASSAY_COMMENT: qHTS assay for MDR1-selective chemotherapeutics: Primary screen using the drug-selected MDR subline cells KB-V1; further: nearly all actives have a fitted effect of over 60% in size
CONDITION_INFO: KB-V1 MDR cells viability, CellTiter-Glo, 72 h; series mostly up to 46.1 µM
Screen size: about 400,000 compounds; about 13,000 (3.2%) were called active. Another 18% or so got no clear call; they are omitted. The call rests on the fitted dose curve; in most records, active means well fitted cell-killing curve with a large enough effect; inconclusive means small, poorly fitted or top-dose-only effect, or effect the other way; inactive means flat fitted curve, though single readings scatter. The sample holds actives, similar compounds and a random draw of the others, so the mix is not that of the screen.
Your reply should match one of these outcome classes. Yes for active, No for inactive

1) O=C(NCC1CCCO1)c1ccc2ccccc2n1 (stereo not given) : No
2) COC(=O)[C@@]1(Cc2ccc(F)cc2)[C@H]2c3cc(C(=O)N(C)C)n(CCc4c[nH]c5ccc(OC)cc45)c3C[C@H]2CN1C(=O)c1ccccc1 : Yes
3) COCCCn1cc(CN2CC(N(C)C)CS2(=O)=O)nn1 (stereo not given) : No
4) O=C(NCC1CCCO1)c1cc2c([nH]c3ccccc32)c(-c2ccc(F)cc2)n1 (stereo not given) : Yes

Please state the recorded outcome for this compound: COc1ccc2cc(C(=O)NCC3CCCO3)[nH]c2c1 (stereo not given) No
